- MEASUREMENT NOTES: Acute intravenous toxicity in mice
- EXPERIMENTAL SETUP: mouse, in vivo, iv
ASSAY ENDPOINT: LD50 (mg/kg)
Return type: number; implicit unit mg/kg.

[Q] I am curious: what LD50 value has been reported for CC1CCc2c(N3CCC(O)CC3)c(F)cc3c(=O)c(C(=O)O)cn1c23 (racemic) [RS-(±)-Nadifloxacin] ?
[A] 311

----------
- MEASUREMENT NOTES: in vivo
- Set-up: species or system Swiss mice
- EXPERIMENTAL SETUP: Swiss, mouse, po, 30 mg/kg
ASSAY ENDPOINT: AUC (ng·h/mL)
Numbers only here, please. The scale is ng·h/mL.

[Q] Quick one: AUC of CC1CCc2c(N3CCC(O)CC3)c(F)cc3c(=O)c(C(=O)O)cn1c23 (racemic) [RS-(±)-Nadifloxacin] ?
[A] 16900

Where do the numbers come from? From patent US6750224B1.
